// values below are reported GI50
System: OVCAR-5
Assay: NCI tumour cell line growth inhibition, 48 h
The source made the active and inactive calls. Rule as the data show it: active = GI50 up to about 1.1 µM and inactive = higher.
endpoint-name: GI50

{"compound": "Nn1c(=S)[nH]nc(/C=C/c2c(O)ccc3ccccc23)c1=O", "system-under-test": "OVCAR-5", "measured-result": "7.08 µM (inactive)"}
{"compound": "CC(C)c1cccc(C(C)C)c1NC(=O)CCC(=O)NN", "system-under-test": "OVCAR-5", "measured-result": "> 100 µM (inactive)"}
{"compound": "Cc1nc2ccccc2n1Cc1nnc2n1N=C(c1ccccc1)CS2", "system-under-test": "OVCAR-5", "measured-result": "53.3 µM (inactive)"}
{"compound": "CC(=O)C1C(=O)C(=O)N(c2ccc([N+](=O)[O-])cc2)C1=O (stereo unspecified)", "system-under-test": "OVCAR-5", "measured-result": "> 100 µM (inactive)"}
{"compound": "COc1cccc2c1-c1c(OC)cccc1SS2", "system-under-test": "OVCAR-5", "measured-result": "17.8 µM (inactive)"}
{"compound": "COC(=O)C1C(C(=O)OC)N(Cc2ccccc2)C(=O)N1Cc1ccccc1 (stereo unspecified)", "system-under-test": "OVCAR-5", "measured-result": "> 100 µM (inactive)"}
{"compound": "CC(=O)N1CC2Nc3ccccc3C2CC1CO (stereo unspecified)", "system-under-test": "OVCAR-5", "measured-result": "> 100 µM (inactive)"}
{"compound": "O=C(CC/C(CC(=O)c1ccc(Cl)cc1)=N\\O)Nc1cccc(Cl)c1", "system-under-test": "OVCAR-5", "measured-result": "> 100 µM (inactive)"}
{"compound": "Clc1c(C(Cl)(Cl)Cl)nsc1N1CCCCC1", "system-under-test": "OVCAR-5", "measured-result": "33.7 µM (inactive)"}
{"compound": "CC(=O)N(C(C)=O)c1c(N)n(C)c(=O)[nH]c1=O", "system-under-test": "OVCAR-5", "measured-result": "> 100 µM (inactive)"}
{"compound": "CC(C)(C)N/N=C(/Cc1nc2c3c(ccc2nc1O)C(=O)c1ccccc1C3=O)C(=O)NC1=C(Cl)C(=O)c2ccccc2C1=O", "system-under-test": "OVCAR-5", "measured-result": "> 100 µM (inactive)"}

---

Test system: U-251
Experiment: NCI tumour cell line growth inhibition, 48 h
Calls of active or inactive are those of the source. No stated cut-off is given here; in the data, active = GI50 up to about 1.1 µM and inactive = higher.
Property: GI50; scope: individual compounds

{"compound": "O=C(O)c1ccc(Nc2nc3nn(Cc4ccccc4)cc3c(=O)s2)cc1", "GI50": "> 100 µM (inactive)"}
{"compound": "COc1ccc2cc(C(=O)NCCCNC(=O)c3ccc4c(OC)c(OC)ccc4c3)ccc2c1OC", "GI50": "> 100 µM (inactive)"}
{"compound": "OCc1cc2c([nH]c3ccccc32)c(C(O)CO)n1 (stereo unspecified)", "GI50": "> 100 µM (inactive)"}
{"compound": "Cc1nc2ccccc2c(=O)n1/N=C/c1ccc(N(C)C)cc1", "GI50": "45 µM (inactive)"}
{"compound": "CSc1c(C(=O)Nc2ccccc2)c(N)nn1-c1ccccc1", "GI50": "> 100 µM (inactive)"}
{"compound": "COc1cccc2c1-c1c(OC)cccc1SS2", "GI50": "15.7 µM (inactive)"}

---

System: U-251
Test: NCI tumour cell line growth inhibition, 48 h
Activity calls are given as the source filed them. No stated cut-off is given here; in the data, active = GI50 up to about 1.1 µM and inactive = higher. Where a SMILES comes first, the peptide text is derived from it. [ ]: non-standard residue; d: D form. The star is where a group is joined. Chg = N[CH](C(=O)O)C1CCCCC1; Cbz = O=C(OCc1ccccc1)*; OBn = c1ccc(CO*)cc1
Possible outcomes: Y for active, N for inactive

{"molecule": "CCOC(=O)C(=O)Nc1ccccc1C", "class": "N"}
{"molecule": "CCOC(=O)c1nc2cc(C(F)(F)F)ccc2nc1Nc1ccc(F)cc1", "class": "N"}
{"molecule": "NC(=O)c1ccc(N)nc1 [6-AMINONICOTINAMIDE]", "class": "N"}
{"molecule": "NC(=O)c1ccc[n+](C2=C([N-]S(=O)(=O)c3ccccc3)C(=O)c3ccccc3C2=O)c1", "class": "N"}
{"molecule": "O=C1CC(Sc2nc3ccc(I)cc3c(=O)n2Cc2ccccc2)C(=O)NN1 (configuration not stated)", "class": "N"}
{"molecule": "COc1ccc(Nc2nc(N)c(C(=O)c3cccs3)s2)cc1", "class": "N"}
{"molecule": "COc1cc(Nc2n[nH]c(NS(=O)(=O)c3cc(C)c(Cl)cc3S)n2)cc(OC)c1OC", "class": "N"}
{"molecule": "COC(=O)C(NC(=O)C(CC(=O)OCc1ccccc1)NC(=O)OCc1ccccc1)C1CCCCC1 (configuration not stated) (Cbz-Asp(OBn)-[Chg]-OMe; configuration not given here)", "class": "N"}
{"molecule": "O=C(O)COc1ccc(C(=O)/C(SS/C(C(=O)c2ccc(OCC(=O)O)c(Cl)c2Cl)=C2\\C=C(c3ccccc3Cl)SS2)=C2/C=C(c3ccccc3Cl)SS2)c(Cl)c1Cl", "class": "N"}
{"molecule": "O=[N+]([O-])c1cc(F)ccc1S(=O)(=O)c1ccccc1", "class": "N"}
{"molecule": "COc1ccc(/N=c2/oc3ccccc3cc2C(N)=O)cc1", "class": "N"}
{"molecule": "CC(C)c1cccc(C(C)C)c1NC(=O)CCC(=O)NN", "class": "N"}
{"molecule": "Cc1nc2ccccc2n1Cc1nnc2n1N=C(c1ccccc1)CS2", "class": "N"}
{"molecule": "Oc1cc(Cl)cc2cccnc12", "class": "Y"}
{"molecule": "COc1ccc(CCc2ccccc2CC(=O)O)cc1", "class": "N"}
{"molecule": "Nc1ccc2c(=O)cc(-c3cccs3)[nH]c2n1", "class": "N"}
{"molecule": "Nn1c(=S)[nH]nc(/C=C/c2c(O)ccc3ccccc23)c1=O", "class": "N"}
{"molecule": "c1cc2c(s1)-c1sccc1C21OCCO1", "class": "N"}
{"molecule": "C#CCOC(=O)C(N)CS (configuration not stated)", "class": "N"}
{"molecule": "O=C1Cc2ccccc2N1/N=C\\c1ccc([N+](=O)[O-])cc1", "class": "N"}
{"molecule": "Cc1cc(C)c2c(c1)CC1(Cc3ccc(C)c(C)c3C1=O)C2=O (configuration not stated)", "class": "N"}
{"molecule": "O=c1c(O)c(-c2ccc(O)c(O)c2)oc2cc(O)ccc12", "class": "N"}

---

Measured GI50 of individual entries
System: MCF7
Test: NCI tumour cell line growth inhibition, 48 h
The source made the active and inactive calls. Rule as the data show it: active = GI50 up to about 1.1 µM and inactive = higher.

{"molecule": "C/C=C/[P+](c1ccccc1)(c1ccccc1)c1ccccc1", "system-under-test": "MCF7", "GI50": "1.18 µM (inactive)"}
{"molecule": "COC(=O)[C@H]1C[C@H]1NC(=O)C(CC(=O)OCc1ccccc1)NC(=O)OCc1ccccc1 (stereo partly drawn)", "system-under-test": "MCF7", "GI50": "44.1 µM (inactive)"}
{"molecule": "CCCCC[C@H]1CCCCCCCCCC(=O)OC2C(O[C@@H]3OC(C)[C@H](OC(=O)[C@@H](C)CC)C(O[C@@H]4OC(C)[C@H](O)C(O)[C@@H]4O)[C@@H]3OC(=O)[C@H](C)CC)[C@H](OC3C(O)[C@@H](O)C(C)O[C@H]3O1)OC(CO)[C@H]2O (stereo partly drawn)", "system-under-test": "MCF7", "GI50": "17.3 µM (inactive)"}
{"molecule": "CCOC(=O)c1cc2c3ccn(Cc4ccccc4)c3c3c(C)noc3c2[nH]1", "system-under-test": "MCF7", "GI50": "> 100 µM (inactive)"}
{"molecule": "O=C(OCc1ccccc1)N1CCCc2c(n(S(=O)(=O)c3ccccc3)c3ccccc23)C1", "system-under-test": "MCF7", "GI50": "> 100 µM (inactive)"}
{"molecule": "CCN(CC)C(=O)CCN1CC1", "system-under-test": "MCF7", "GI50": "> 10 µM (inactive)"}
{"molecule": "Cc1cccc2nc3n(c12)C(=O)c1ccccc1-3", "system-under-test": "MCF7", "GI50": "> 100 µM (inactive)"}
{"molecule": "Cn1cc(S(=O)(=O)NC(=O)Nc2ccc(Cl)cc2)c2ccccc21", "system-under-test": "MCF7", "GI50": "56 µM (inactive)"}
{"molecule": "Cc1nc2cc(/N=N/c3c(O)ccc4ccccc34)ccc2[nH]1", "system-under-test": "MCF7", "GI50": "21.2 µM (inactive)"}
{"molecule": "C=C1C[C@H](O)[C@H]2C(C[Se]c3ccccc3)C(=O)O[C@@H]2[C@H]2[C@H](C)C(O)C[C@@H]12 (stereo partly drawn)", "system-under-test": "MCF7", "GI50": "> 100 µM (inactive)"}
{"molecule": "O=C1c2ccccc2CC12Cc1cc3c(cc1C2)CCC3", "system-under-test": "MCF7", "GI50": "34.5 µM (inactive)"}
{"molecule": "C=C1CC(C)(COc2ccc3ccc(=O)oc3c2)OC1=O (stereo not drawn)", "system-under-test": "MCF7", "GI50": "1.48 µM (inactive)"}
{"molecule": "CCOC(=O)C1C(=O)CC(O)(c2ccccc2)C(C(=O)OCC)C1c1ccc(N(C)C)cc1 (stereo not drawn)", "system-under-test": "MCF7", "GI50": "21.8 µM (inactive)"}
{"molecule": "COc1ccc(/C=N/N=C(\\N)NO)c(OC)c1OC", "system-under-test": "MCF7", "GI50": "11.5 µM (inactive)"}
{"molecule": "O=C(NCCCCNCCCNC(=O)C(F)(F)F)C(F)(F)F", "system-under-test": "MCF7", "GI50": "> 100 µM (inactive)"}
{"molecule": "O=C(O)CSc1nnc(CCCCCCCCc2nnc(SCC(=O)O)o2)o1", "system-under-test": "MCF7", "GI50": "> 100 µM (inactive)"}
{"molecule": "Cn1c2c(c3ccccc31)CCN(CCCCN1CCN(c3ccccc3)CC1)C2=O", "system-under-test": "MCF7", "GI50": "19.2 µM (inactive)"}
{"molecule": "O=[N+]([O-])c1cnc(N(CCO)CCO)s1", "system-under-test": "MCF7", "GI50": "> 100 µM (inactive)"}
{"molecule": "CC1CC[C@@]2(OC1)OC1C[C@H]3[C@@H]4CC[C@H]5CC(OC6OC(CO)C(OC7OC(CO)C(O)C(O)C7O)C(O)C6O)CCC5(C)[C@H]4CCC3(C)C1[C@@H]2C (stereo partly drawn)", "system-under-test": "MCF7", "GI50": "5.85 µM (inactive)"}
{"molecule": "CCOc1cc2c(=O)oc3c(OC)ccc4ccc(c1OC)c2c43", "system-under-test": "MCF7", "GI50": "> 100 µM (inactive)"}
{"molecule": "CC(=O)OC(C)(C)CCC(=O)[C@](C)(O)[C@H]1[C@H](O)C[C@@]2(C)[C@@H]3CC=C4C(C)=C(OC5OC(CO)C(O)C(O)C5O)C(=O)C[C@@H]4[C@]3(C)C(=O)C[C@]12C (stereo partly drawn)", "system-under-test": "MCF7", "GI50": "> 100 µM (inactive)"}
{"molecule": "CC(=O)c1ccc(NCN2C(=O)c3ccccc3C2=O)cc1", "system-under-test": "MCF7", "GI50": "> 100 µM (inactive)"}
{"molecule": "COc1cc(Nc2n[nH]c(NS(=O)(=O)c3cc(C)c(Cl)cc3S)n2)cc(OC)c1OC", "system-under-test": "MCF7", "GI50": "> 100 µM (inactive)"}
